Reference source for all entries: patent US20240059759A1

Listed binders paired with reported xmid (log10)
tested_on: SARS-CoV-2 Spike RBD-His Tag, Sino Biological (SARS-CoV-2)
Keep the answer to the number alone.

Some entries whose results are on file:
>>> recorded_measurement("vhh_tstrep_sars2_pjl1_L_119 (VHH) VHH: QVQLQESGGGLVQAGGSLRLSCAASGRTFSEYAMGWFRQAPGKEREFVATESWSGGATYHTDSVKGRFTISRDNAKNTVYLQMNSLKPDDTAVYYCAAAGLGTVVSEWDYDYDYWGQGTQVTVSS")
0.39
>>> recorded_measurement("vhh_tstrep_sars2_pjl1_L_120 (VHH) VHH: QVQLQESGGGLVQAGGSLRLSCAASGRTFSEYAMGWFRQAPGKEREFVATISWSGGATYHTDSVDGRFTISRDNAKNTVYLQMNSLKPDDTAVYYCAAAGLGTVVSEWDYDYDYWGQGTQVTVSS")
-0.0348

Lookup: Consider the binder shown here: vhh_tstrep_sars2_pjl1_L_116 (VHH) VHH: QVQLQESGGGLVQAGGSLRLSCAASGRTFSEYAMGWFRQAPGKEREFVASISWSGGATYHTDSVKGRFTISRDNAKNTVYLQMNSLKPDDTAVYYCAAAGLGTVVSEWDYDYDYWGQGTQVTVSS What is its recorded xmid (log10)?
Found: 0.288

Lookup: Item: vhh_tstrep_sars2_pjl1_L_125 (VHH) VHH: QVQLQESGGGLVQAGGSLRLSCAASGRTFSEYAMGWFRQAPGKEREFVATISWSGGATYHTDSVKGRFTISRDNAKNTVYLQMNSLKPDDTAVYYCAAAGLRTVVSEWDYDYDYWGQGTQVTVSS
Found: 0.108

Lookup: Item: vhh_tstrep_sars2_pjl1_L_77 (VHH) VHH: QVQLQESGGGLVQAGGSLRLSCAASGRTFSEYAMGWFRQAPGKEREFVATISWSGGATYHTDSVKGRFTISRDNAKNTVYLQMNSLKPDDTAVYYCAAAGLGTVVSEWDYDYDYWGQGTQVTVSS
Found: -1.49
